pest or weed control at 250 g/ha for assorted compounds
Tested on: Avena fatua (AVEFA)
Assay: Biological Example 1 glasshouse screen, post-emergence herbicidal activity
Format: in vivo
Conditions: 312 h, application rate 250 g/ha, evaluated after 13 days, read-out: AVEFA percentage phytotoxicity
Description: Seeds of a variety of test species were sown in standard soil in pots. […] After 13 days for pre- or post-emergence, the test was evaluated visually, and an assessed percentage phytotoxicity score given for each herbicidal application on each plant/weed species (with 100%=total damage to plant; 0%=no damage to plant). […]
TEST_READOUT: pest or weed control at 250 g/ha (%)

>>> measurement("CC#Cc1cc(C)c(C2=C(O)CC(Cc3cccc(F)n3)C2=O)c(C)c1 (stereo not shown)")
90
>>> measurement("CC#Cc1cc(C)c(C2C(=O)CC(Cc3ccc(C#N)c(NC)n3)C2=O)c(C)c1 (stereo not shown)")
90
>>> measurement("CC#Cc1cc(C)c(C2=C(O)CC(Cc3cccnc3C#CC)C2=O)c(C)c1 (stereo not shown)")
100
>>> measurement("CC#Cc1cc(C)c(C2=C(O)CC(Cc3ccc(F)cn3)C2=O)c(C)c1 (stereo not shown)")
90

Recorded values, source patent US9107415B2.
